Assay: Quantitative High-Throughput drug screen in 47 multiple myeloma cell lines against the NCATS MIPE library collection: KMS28PE_JCRB cell viability assay (AID 1918983); further: nearly all actives have a fitted effect of over 35% in size
Conditions: KMS28PE multiple myeloma viability, CellTiter-Glo ATP, 48 h; series mostly up to 45.8 µM
Results filed as inconclusive are left out. Calls of active or inactive are those of the source. The call rests on the fitted dose curve; in most records, active means well fitted cell-killing curve with a large enough effect; inconclusive means small, poorly fitted or top-dose-only effect, or effect the other way; inactive means no such curve, though single readings can be large or run the other way.
Outcome codes: 1 (active), -1 (inactive)

>  <COMPOUND>
Nc1ccc(S(=O)(=O)Nc2ncccn2)cc1

>  <CLASS ASSIGNMENT>
-1

$$$$
>  <COMPOUND>
C1Cc2[nH]nc(-c3nn[nH]n3)c2C1

>  <CLASS ASSIGNMENT>
-1

$$$$
>  <COMPOUND>
COCCn1c2c([n+](Cc3cnccn3)c1C)C(=O)c1ccccc1C2=O

>  <CLASS ASSIGNMENT>
1

$$$$
>  <COMPOUND>
CC(C)c1noc(N2CCC(COc3ccc(-c4ccc(S(C)(=O)=O)cc4)nc3)CC2)n1

>  <CLASS ASSIGNMENT>
1

$$$$
>  <COMPOUND>
CC(=O)Nc1nc(C)c(-c2ccc(Cl)c(S(=O)(=O)NCCO)c2)s1

>  <CLASS ASSIGNMENT>
1

$$$$
>  <COMPOUND>
COc1c(N2C[C@@H]3CCCN[C@H]3C2)c(F)cc2c(=O)c(C(=O)O)cn(C3CC3)c12

>  <CLASS ASSIGNMENT>
-1

$$$$
>  <COMPOUND>
CC(=O)c1c(C)c2cnc(Nc3ccc(N4CCNCC4)cn3)nc2n(C2CCCC2)c1=O

>  <CLASS ASSIGNMENT>
1

$$$$
>  <COMPOUND>
CC1(O)CC(c2nc(-c3ccc4ccc(-c5ccccc5)nc4c3)c3c(N)nccn23)C1 (stereo not given)

>  <CLASS ASSIGNMENT>
1

$$$$
>  <COMPOUND>
CCn1nnc2c(N3CCOCC3)nc(-c3ccc(NC(=O)Nc4ccc(C(=O)N5CCN(C)CC5)cc4)cc3)nc21

>  <CLASS ASSIGNMENT>
1

$$$$
>  <COMPOUND>
CC1(C)OC2=C(C(=O)c3ccccc3C2=O)[C@H](NCc2ccccc2)[C@H]1O

>  <CLASS ASSIGNMENT>
1

$$$$
